# tested-system: T1, HIDE1_HH-1 (Human ECD + human IgG1 Fc mutated C220S at hinge), without SP (human)
# T1 construct: Batch #280 in the Serotec and phage display work; also called HIDE1 hECD-hIg; HIDE1 (H:H) recombinant Fc fusion protein
# T1 sequence (chain, as listed by the source C220S C220S limits assumed): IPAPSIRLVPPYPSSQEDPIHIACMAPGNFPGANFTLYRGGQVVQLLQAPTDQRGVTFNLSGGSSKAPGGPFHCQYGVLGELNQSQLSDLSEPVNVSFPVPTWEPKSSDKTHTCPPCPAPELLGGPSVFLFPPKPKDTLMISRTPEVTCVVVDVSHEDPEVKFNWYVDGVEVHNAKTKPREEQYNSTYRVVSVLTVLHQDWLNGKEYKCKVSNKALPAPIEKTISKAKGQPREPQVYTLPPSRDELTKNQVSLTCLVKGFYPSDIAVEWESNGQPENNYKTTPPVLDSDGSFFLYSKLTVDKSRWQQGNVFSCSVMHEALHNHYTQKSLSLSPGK
# assay-summary: SPR (ProteOn), Fab PPE over captured HIDE1-HH-1, 1:1 fit
endpoint: koff (s⁻¹)

[[record]]
binder = "CPA.12.001 Fab (A01 S397-01.A04) (Fab, V domains shown, XOMA031 library Fab in periplasmic extract) VH: QVQLVESGGGLVQPGRSLRLSCAASGFTFSSYGMHWVRQAPGKGLEWVAVISYDGSNKYYADSVKGRFTISRDNSKNTLYLQMNSLRAEDTAVYYCASEGVDFWSGLDYWGQGTLVTVSS VL: QSALTQPRSASGSAGQSVTISCTGTSSDVGGHNYVSWYQQFPGKAPKLLIYEVSHRPSGVPDRFSGSKSGNTASLTVSGLQAEDEADYYCSSYADLNNLMFGGGTKLTVLG"
endpoint_value = 0.00081

[[record]]
binder = "CPA.12.009 Fab (A10 S398-02.A04) (Fab, V domains shown, XOMA031 library Fab in periplasmic extract) VH: QMQLVQSGAEVKKPGASVKVSCKASGYTFTTHAFSWVRQAPGLGLEWMGWISTYNGNTKYEQKFQGRVTLTTDSSTNTAYMELRSLRSDDTAVYYCVRDSRAFDVWGQGTMVTVSS VL: DIQLTQSPSFLSASVGDRVTITCRASQGINSYLAWYQQKPGAAPKLLIYAASTLQSGVPSRFSGSGSGTEFTLTISSLQPEDFATYYCQQLNTYPLIFGQGTRLEIKR"
endpoint_value = 0.0014

[[record]]
binder = "CPA.12.014 Fab (B12 S404-01.E06) (Fab, V domains shown, XOMA031 library Fab in periplasmic extract) VH: QVTLKESGPALVTPTQNLTLTCTVSGGSISSSSYYWGWIRQPPGKGLEWIGSIYYSGSTYYNPSLKSRVTISVDTSKNQFSLKLSSVTAADTAVYYCARRRNSSGWFYFDYWGQGTLVTVSS VL: QSVLTQPPSVSGAPRQRVTISCSGSRSNIGDNAVNWYQHPPGKAPKLLIYYDDLLPSGVSDRFSGSKSGTSASLAISGLQSEDEADYYCATWDDSLNGHVFGTGTKLTVLG"
endpoint_value = 0.0037

[[record]]
binder = "CPA.12.003 Fab (A03 S397-01.A12) (Fab, V domains shown, XOMA031 library Fab in periplasmic extract) VH: QVQLQESGPGLVTPSETLSLTCTVSGGSISSVSYYWGWVRQPPGKGLEWIGSIYYSGTTAHNPSLKSRVTMAVDTSKNQFSLSLSSVTAADTAVYFCARGWRYYEDYYFDHWGQGTLVTVSS VL: DIQMTQSPSTLSASVGDRVTITCRASQSINRWLAWYQQKPGKAPKILIYTASSLESGVPSRFSGSGSGTEFTLTISSLQPDDFATYYCQQYNSYPITFGQGTRLEIKR"
endpoint_value = 0.00022

